tgt: USP7 (Homo sapiens (Human))
Sequence (Q93009 whole entry): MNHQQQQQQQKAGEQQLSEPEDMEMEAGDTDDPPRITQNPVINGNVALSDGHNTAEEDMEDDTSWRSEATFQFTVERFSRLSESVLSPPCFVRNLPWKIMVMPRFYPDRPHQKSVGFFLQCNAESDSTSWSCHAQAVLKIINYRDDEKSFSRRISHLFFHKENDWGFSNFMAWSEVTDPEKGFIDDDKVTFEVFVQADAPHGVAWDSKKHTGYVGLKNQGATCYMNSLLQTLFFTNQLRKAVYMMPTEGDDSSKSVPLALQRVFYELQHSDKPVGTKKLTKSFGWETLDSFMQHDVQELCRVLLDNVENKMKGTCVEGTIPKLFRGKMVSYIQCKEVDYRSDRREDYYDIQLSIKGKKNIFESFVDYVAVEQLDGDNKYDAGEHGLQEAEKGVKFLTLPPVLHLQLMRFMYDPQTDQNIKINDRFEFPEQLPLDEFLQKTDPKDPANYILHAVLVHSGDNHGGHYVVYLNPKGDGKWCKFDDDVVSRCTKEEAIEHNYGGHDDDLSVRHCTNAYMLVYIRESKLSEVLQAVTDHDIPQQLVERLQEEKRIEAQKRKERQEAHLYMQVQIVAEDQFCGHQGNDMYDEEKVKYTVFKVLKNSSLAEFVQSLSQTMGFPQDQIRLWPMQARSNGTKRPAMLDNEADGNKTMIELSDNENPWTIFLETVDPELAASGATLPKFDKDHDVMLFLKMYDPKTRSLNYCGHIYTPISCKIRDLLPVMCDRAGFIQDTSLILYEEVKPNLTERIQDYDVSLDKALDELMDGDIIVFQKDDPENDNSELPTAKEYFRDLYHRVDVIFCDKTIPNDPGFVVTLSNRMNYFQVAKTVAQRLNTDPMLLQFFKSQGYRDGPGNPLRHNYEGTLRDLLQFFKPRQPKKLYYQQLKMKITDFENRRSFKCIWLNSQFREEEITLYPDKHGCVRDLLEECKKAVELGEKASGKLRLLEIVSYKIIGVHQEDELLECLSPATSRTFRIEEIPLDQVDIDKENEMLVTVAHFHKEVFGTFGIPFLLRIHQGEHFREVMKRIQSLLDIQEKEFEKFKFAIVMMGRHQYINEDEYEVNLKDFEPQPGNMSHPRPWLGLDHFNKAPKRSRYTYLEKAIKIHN
procedure details: USP7 fluorescence polarisation (FP) assay with ubiquitin-Lys-TAMRA substrate
Type: biochemical
protocol conditions: biochemical inhibition; unit not given in Table 3b (Table 1 and key of Table 3a use μM); read-out: USP7 IC50 activity (Table 3b)
Measured log10 of IC50 values are reported for all entries that follow.
Recorded IC50 (log10, µM)

# example entries with known answers
[[record]]
molecule = "CC[C@H]1CN[C@H](c2ccc(-n3c(Cl)cc4c(=O)n(CC5(O)CCN(C(=O)[C@]6(C)C[C@H]6C(F)(F)F)CC5)cnc43)cc2)CO1 (single isomer, unassigned) [Example 66]"
assay_value = -1.20

[[record]]
molecule = "CC[C@H]1CN[C@H](c2ccc(-n3c(Cl)cc4c(=O)n(CC5(O)CCN(C(=O)[C@]6(C)C[C@H]6C)CC5)cnc43)cc2)CO1 [Example 96]"
assay_value = -1.43

[[record]]
molecule = "Cc1cc(-n2c(Cl)cc3c(=O)n(CC4(O)CCN(C(=O)c5ccc(C(F)F)cc5)CC4)cnc32)ccc1[C@H]1CO[C@H](C)CN1 [Example 92]"
assay_value = -0.95

[[record]]
molecule = "Cc1cc(-n2c(Cl)cc3c(=O)n(CC4(O)CCN(C(=O)C5(C)CC5)CC4)cnc32)ccc1[C@H]1COCCN1 (single isomer, unassigned) [Example 73]"
assay_value = -1.74

[[record]]
molecule = "O=C(N1CCC(O)(Cn2cnc3c(cc(Cl)n3-c3ccc([C@@H]4COC5(CCC5)CN4)cc3)c2=O)CC1)C1(C2CC2)CC1 (racemic) [Example 43]"
assay_value = -1.30

[[record]]
molecule = "Cc1cc(-n2c(Cl)cc3c(=O)n(CC4(O)CCN(C(=O)c5ccc(F)cc5)CC4)cnc32)ccc1[C@H]1CO[C@H](C)CN1 [Example 47]"
assay_value = -1.04

[[record]]
molecule = "CC1(C)CN[C@H](c2ccc(-n3c(Cl)cc4c(=O)n(CC5(O)CCN(C(=O)C6(C7CC7)CC6)CC5)cnc43)cc2)CO1 (single isomer, unassigned) [Example 40]"
assay_value = -0.81

[[record]]
molecule = "C[C@H]1CN[C@H](c2ccc(-n3c(Cl)cc4c(=O)n(CC5(O)CCN(C(=O)c6cccc(Cl)c6)CC5)cnc43)cc2)CO1 [Example 35]"
assay_value = -0.65

[[record]]
molecule = "C[C@H]1CN[C@H](c2ccc(-n3c(Cl)cc4c(=O)n(CC5(O)CCN(C(=O)c6ccc(F)c(F)c6)CC5)cnc43)cc2)CO1 [Example 37]"
assay_value = -0.60

[[record]]
molecule = "CC[C@H]1CN[C@H](c2ccc(-n3c(Cl)cc4c(=O)n(CC5(O)CCN(C(=O)c6ccc(F)cc6)CC5)cnc43)cc2)CO1 [Example 45]"
assay_value = -0.75


Request: Please state recorded log10 of IC50 (tested on USP7 (Homo sapiens (Human))) of C[C@H]1CN[C@H](c2ccc(-n3c(Cl)cc4c(=O)n(CC5(O)CCN(C(=O)CCC6CC6)CC5)cnc43)cc2)CO1 [Example 103]
Result: -0.68

Request: What reported log10 of IC50 corresponds to O=C(c1ccc(Cl)cc1)N1CCC(O)(Cn2cnc3c(cc(Cl)n3-c3ccc(C4COC5CC5N4)cc3)c2=O)CC1 (stereo not drawn) [Example 60] on USP7 (Homo sapiens (Human))?
Result: -0.50

Request: Find log10 of IC50 (USP7 (Homo sapiens (Human))) for the entry O=C(C[C@H](c1ccccc1)C(F)(F)F)N1CCC(O)(Cn2cnc3c(cc(Cl)n3-c3ccc([C@@H]4COCCN4)cc3)c2=O)CC1 (single isomer, unassigned) [Example 81]
Result: -1.82
